method-notes: A549 cell viability effects, profiling panel, calcein-AM fluorescence, 48 h, basal (AID 1162); also: test concentration not given here
run-parameters: higher = more signal
Catalogue of compounds with associated z-score
property-measured: z-score

compound: CO[C@H]1COC(=O)CC=C[C@H](C)[C@H](OC)COC(=O)[C@@H](C)NC(=O)CC=C[C@@H]1C
meas-value: -0.42

compound: COC(=O)[C@H](CCSC)NC(=O)CC=C[C@@H](C)CO
meas-value: -0.493

compound: CC1(C)O[C@H]2O[C@H]([C@H](O)CON=C3[C@H]4CCn5c(=O)n(-c6ccccc6)c(=O)n5[C@H]4[C@H](O)[C@@H]4O[C@H]34)[C@H](O)[C@H]2O1
meas-value: -0.359

compound: CC(C)[C@@H](OCc1ccccc1)[C@H](C)C=NO[C@@H](C)c1cn([C@H](CO)Cc2ccccc2)nn1
meas-value: 0.0751

compound: CON=C(C)CCN1CCCCc2nc(C)c(C)cc21
meas-value: 1.03

compound: COCC#Cc1ccc([C@@H]2N[C@H](C(=O)O)CC[C@H]2C)cc1
meas-value: 0.681

compound: CO[C@@H](C(C)C)[C@@H](C)C1OC(=O)CC1O (some centres undefined)
meas-value: -0.729

compound: CO[C@@H]1COC(=O)[C@@H]2CCCN2C(=O)[C@@H](C)COC(=O)CCC[C@H]1C
meas-value: -0.0294

compound: C#CCCCON=C1C[C@@H](O)[C@@H](O)[C@@H]2[C@@H]3C(=O)N(CC)C(=O)[C@@H]3CC[C@H]12
meas-value: -0.662
